- Target Desc: T1, CD154 (human, UniProt P29965 113-261, limits assumed)
- T1 construct: also called CD40 ligand; CD40L
- T1 sequence (looked up): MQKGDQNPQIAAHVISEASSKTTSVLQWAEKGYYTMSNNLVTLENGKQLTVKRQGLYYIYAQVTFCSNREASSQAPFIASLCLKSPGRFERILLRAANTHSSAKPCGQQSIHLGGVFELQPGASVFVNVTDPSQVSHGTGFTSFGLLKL
- Assay: ELISA-based competitive binding assay; unlabeled Fab against biotin-labeled 5c8 Fab competitor
# ELISA fold-improvement over wildtype per record follows
Give a bare numeral; the unit fold over wildtype is implied.

Look up ELISA fold-improvement over wildtype for this binder: 5c8 Fab Mutant #24 (heavy chain T30H/Y33W; light chain S26D/Q27E) (Fab, V domains shown, Fab fragment) VH: QVQLVQSGAEVVKPGASVKLSCKASGYIFHSYWMYWVKQAPGQGLEWIGEINPSNGDTNFNEKFKSKATLTVDKSASTAYMELSSLRSEDTAVYYCTRSDGRNDMDSWGQGTLVTVSS VL: DIVLTQSPATLSVSPGERATISCRADERVSSSTYSYMHWYQQKPGQPPKLLIKYASNLESGVPARFSGSGSGTDFTLTISSVEPEDFATYYCQHSWEIPPTFGGGTKLEIK
8

Input 5c8 Fab Mutant #12 (heavy chain N59D) (Fab, V domains shown, also called Asn59Asp) VH: QVQLVQSGAEVVKPGASVKLSCKASGYIFTSYYMYWVKQAPGQGLEWIGEINPSNGDTDFNEKFKSKATLTVDKSASTAYMELSSLRSEDTAVYYCTRSDGRNDMDSWGQGTLVTVSS VL: DIVLTQSPATLSVSPGERATISCRASQRVSSSTYSYMHWYQQKPGQPPKLLIKYASNLESGVPARFSGSGSGTDFTLTISSVEPEDFATYYCQHSWEIPPTFGGGTKLEIK
0.13

Input 5c8 Fab Mutant #4 (heavy chain S54N) (Fab, V domains shown, Fab fragment) VH: QVQLVQSGAEVVKPGASVKLSCKASGYIFTSYYMYWVKQAPGQGLEWIGEINPNNGDTNFNEKFKSKATLTVDKSASTAYMELSSLRSEDTAVYYCTRSDGRNDMDSWGQGTLVTVSS VL: DIVLTQSPATLSVSPGERATISCRASQRVSSSTYSYMHWYQQKPGQPPKLLIKYASNLESGVPARFSGSGSGTDFTLTISSVEPEDFATYYCQHSWEIPPTFGGGTKLEIK
2

Input 5c8 Fab Mutant #7 (light chain Q27E) (Fab, V domains shown, Fab fragment) VH: QVQLVQSGAEVVKPGASVKLSCKASGYIFTSYYMYWVKQAPGQGLEWIGEINPSNGDTNFNEKFKSKATLTVDKSASTAYMELSSLRSEDTAVYYCTRSDGRNDMDSWGQGTLVTVSS VL: DIVLTQSPATLSVSPGERATISCRASERVSSSTYSYMHWYQQKPGQPPKLLIKYASNLESGVPARFSGSGSGTDFTLTISSVEPEDFATYYCQHSWEIPPTFGGGTKLEIK
6.3
